system: Matrix metalloproteinase-9 (Homo sapiens)
protocol-description: Inhibition of Matrix metalloprotease-9
measured-quantity: pIC50
Give bare numbers, as −log10 of the molar value.

Data request: Supply pIC50 value. Item: CCOc1ccc(S(=O)(=O)C(C)(Cc2ccc(OCCN(CC)CC)cc2)C(=O)NO)cc1 (stereo unspecified)
Data returned: 7.96

###

system: Interstitial collagenase (Homo sapiens, UniProt P03956)
Sequence (P03956 whole entry): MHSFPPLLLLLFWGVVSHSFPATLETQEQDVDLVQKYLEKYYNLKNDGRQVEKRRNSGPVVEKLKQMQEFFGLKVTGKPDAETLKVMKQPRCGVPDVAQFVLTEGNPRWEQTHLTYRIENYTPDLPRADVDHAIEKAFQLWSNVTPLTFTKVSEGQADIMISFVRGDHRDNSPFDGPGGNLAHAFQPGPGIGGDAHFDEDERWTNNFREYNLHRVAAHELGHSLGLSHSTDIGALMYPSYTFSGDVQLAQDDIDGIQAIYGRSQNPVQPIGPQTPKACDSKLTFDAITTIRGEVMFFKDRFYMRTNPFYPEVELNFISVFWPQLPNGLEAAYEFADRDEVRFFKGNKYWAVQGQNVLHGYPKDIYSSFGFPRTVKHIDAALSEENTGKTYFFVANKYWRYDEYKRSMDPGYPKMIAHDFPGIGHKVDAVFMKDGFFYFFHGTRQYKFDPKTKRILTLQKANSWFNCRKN
protocol-description: Inhibition of Matrix metalloprotease-1
measured-quantity: pIC50
Answers are plain numbers, as −log10 of the molar value.

Data request: Consider the molecule CCOc1ccc(S(=O)(=O)C(C)(Cc2ccc(OCCN(CC)CC)cc2)C(=O)NO)cc1 (stereo unspecified) tested on Interstitial collagenase (Homo sapiens, UniProt P03956); state its pIC50.
Data returned: 6.20

###

system: Matrix metalloproteinase-9 (Homo sapiens, UniProt P14780)
Sequence (P14780 whole entry): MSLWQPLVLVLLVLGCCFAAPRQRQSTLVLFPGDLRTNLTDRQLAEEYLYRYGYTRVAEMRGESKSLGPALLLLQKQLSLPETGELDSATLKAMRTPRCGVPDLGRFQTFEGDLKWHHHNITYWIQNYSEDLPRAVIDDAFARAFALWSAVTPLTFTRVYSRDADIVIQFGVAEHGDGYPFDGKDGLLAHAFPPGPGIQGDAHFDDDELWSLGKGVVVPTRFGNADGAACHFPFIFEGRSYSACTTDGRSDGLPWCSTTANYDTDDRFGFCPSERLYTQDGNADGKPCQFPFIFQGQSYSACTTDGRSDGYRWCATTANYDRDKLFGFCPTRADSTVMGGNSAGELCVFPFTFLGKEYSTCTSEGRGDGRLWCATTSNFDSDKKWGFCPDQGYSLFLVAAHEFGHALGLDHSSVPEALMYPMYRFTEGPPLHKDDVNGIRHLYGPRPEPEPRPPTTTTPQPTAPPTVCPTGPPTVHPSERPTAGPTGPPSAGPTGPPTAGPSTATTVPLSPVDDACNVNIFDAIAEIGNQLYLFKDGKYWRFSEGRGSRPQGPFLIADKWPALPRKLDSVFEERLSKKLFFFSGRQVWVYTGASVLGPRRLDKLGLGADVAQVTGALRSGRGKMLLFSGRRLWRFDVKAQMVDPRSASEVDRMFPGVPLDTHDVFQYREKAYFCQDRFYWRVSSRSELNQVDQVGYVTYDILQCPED
protocol-description: In vitro inhibition of matrix metalloprotease-9
pIC50: −log10 of the molar value.
Mark yes (1) for reported pIC50 of 8 or greater; mark no (0) for anything smaller.

Answered examples (5):
>>> print(df.to_string())
                                   compound  class_assignment
0  CCCCOc1ccc(S(=O)(=O)C(C)(Cc2ccc(OCCN3CCCCC3)cc2)C(=O)NO)cc1 (stereo not given)           yes (1)
1  CC(Cc1ccccc1)(C(=O)NO)S(=O)(=O)c1cccs1 (stereo not given)            no (0)
2  COc1ccc(S(=O)(=O)C(CC=C(C)C)(CC=C(C)C)C(=O)NO)cc1           yes (1)
3  CCCCCCCCS(=O)(=O)C(C)(Cc1ccc(OCCN2CCCCC2)cc1)C(=O)NO (stereo not given)            no (0)
4  COc1ccc(S(=O)(=O)C(C)(Cc2ccc(OCCN3CCOCC3)cc2)C(=O)NO)cc1 (stereo not given)            no (0)

Data request: I'd appreciate it if you could say whether CCN(CC)COc1ccc(CC(C)(C(=O)NO)S(=O)(=O)c2ccc(-c3ccco3)cc2)cc1 (stereo not given) has pIC50 at least equal to 8.
Data returned: yes (1)

Data request: Reported pIC50 at or above 8? CC(Cc1ccc(OCCN2CCCCC2)cc1)(C(=O)NO)S(=O)(=O)c1cccs1 (stereo not given)
Data returned: no (0)

###

Give inhibition for every item shown.
system: Disintegrin and metalloproteinase domain-containing protein 17 (Homo sapiens)
protocol-description: In vitro inhibition against tumor necrosis factor alpha converting enzyme at 10 uM concentration
Give bare numbers, in %.

Provide inhibition for all items below, preserving their order.
1. COc1ccc(S(=O)(=O)C(C)(Cc2ccc(OCCN3CCCCC3)cc2)C(=O)NO)cc1 (stereo not drawn)
2. CCCCCCCCS(=O)(=O)C(C)(Cc1ccccc1)C(=O)NO (stereo not drawn)
3. COc1ccc(CS(=O)(=O)C(C)(Cc2ccccc2)C(=O)NO)cc1 (stereo not drawn)
4. CCN(CC)CCOc1ccc(CC(C)(C(=O)NO)S(=O)(=O)c2ccc(OC)cc2)cc1 (stereo not drawn)

Data returned:
1: 41; 2: 1; 3: 3; 4: 39

###

Answer each item with its documented IC50.
system: Matrix metalloproteinase-9 (Homo sapiens)
protocol-description: In vitro inhibition of matrix metalloprotease-9
Numbers only, in nM.

Known IC50 results, listed for orientation:
In [3]: df
Out[3]:
                                   compound  value_units  reported_measurement
0  COc1ccc(S(=O)(=O)C(C)(C/C=C/c2ccccc2)C(=O)NO)cc1 (stereo not drawn)           nM                    16
1  COc1ccc(S(=O)(=O)C(C)(Cc2ccc3ccccc3c2)C(=O)NO)cc1 (stereo not drawn)           nM                     8

Could you now consider this next compound?
Data request: Give IC50 for CCN(CC)CCOc1ccc(CC(C)(C(=O)NO)S(=O)(=O)c2ccc(OC)cc2)cc1 (stereo not drawn)
Data returned: 13

###

Record form. Attribute: inhibition. Fill in for each entry.
system: Disintegrin and metalloproteinase domain-containing protein 17 (Homo sapiens, UniProt P78536)
Sequence (P78536 whole entry, the tested form may be a part): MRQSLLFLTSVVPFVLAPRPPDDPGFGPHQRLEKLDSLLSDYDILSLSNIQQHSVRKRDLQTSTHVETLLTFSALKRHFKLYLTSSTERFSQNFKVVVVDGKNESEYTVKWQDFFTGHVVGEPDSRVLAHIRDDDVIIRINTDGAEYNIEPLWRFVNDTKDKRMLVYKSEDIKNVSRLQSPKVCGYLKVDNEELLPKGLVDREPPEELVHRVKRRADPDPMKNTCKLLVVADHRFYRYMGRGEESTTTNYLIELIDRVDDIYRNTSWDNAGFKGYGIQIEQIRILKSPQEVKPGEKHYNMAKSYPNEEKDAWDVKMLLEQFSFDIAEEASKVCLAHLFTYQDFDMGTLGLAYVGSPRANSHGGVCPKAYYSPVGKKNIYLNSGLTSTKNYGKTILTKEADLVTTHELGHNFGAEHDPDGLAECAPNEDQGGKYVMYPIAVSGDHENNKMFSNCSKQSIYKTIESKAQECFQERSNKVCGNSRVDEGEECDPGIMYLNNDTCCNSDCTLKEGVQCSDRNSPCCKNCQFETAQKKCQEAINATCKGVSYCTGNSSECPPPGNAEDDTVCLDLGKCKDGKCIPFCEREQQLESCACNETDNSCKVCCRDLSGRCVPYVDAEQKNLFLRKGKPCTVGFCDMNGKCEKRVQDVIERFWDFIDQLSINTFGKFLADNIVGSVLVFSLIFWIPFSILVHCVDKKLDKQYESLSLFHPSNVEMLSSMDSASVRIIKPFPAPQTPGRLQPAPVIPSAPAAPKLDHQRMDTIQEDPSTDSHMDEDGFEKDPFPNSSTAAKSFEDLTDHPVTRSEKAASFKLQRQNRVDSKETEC
protocol-description: In vitro inhibition against tumor necrosis factor alpha converting enzyme at 10 uM concentration

Worked cases, inhibition given:
                                   compound  measured_quantity  reported_measurement
0  C#CCC(CC#C)(C(=O)NO)S(=O)(=O)c1ccc(OC)cc1         inhibition                   20%
1  CCCCCCCCS(=O)(=O)C(C)(Cc1ccc(OCCN2CCCCC2)cc1)C(=O)NO (centres undefined)         inhibition                   65%
2  CC(C)=CCC(CC=C(C)C)(C(=O)NO)S(=O)(=O)c1ccc(C)cc1         inhibition                   36%
3   CCCC(CCC)(C(=O)NO)S(=O)(=O)c1ccc(OC)cc1         inhibition                   24%

For every item below, please supply its inhibition.
1. COc1ccc(S(=O)(=O)C(C)(Cc2ccc(OCCCN3CCN(c4cccc(Cl)c4)CC3)cc2)C(=O)NO)cc1 (centres undefined)
2. COc1ccc(S(=O)(=O)C(C)(Cc2ccc(-c3ccccc3)cc2)C(=O)NO)cc1 (centres undefined)
3. COc1ccc(S(=O)(=O)C(CCC(C)C)(Cc2cccnc2)C(=O)NO)cc1 (centres undefined)
4. COc1ccc(S(=O)(=O)C(C(=O)NO)C(C)C)cc1 (centres undefined)

Data returned:
40%
17%
41%
52%

Data request: Specify inhibition for CC(Cc1ccccc1)(C(=O)NO)S(=O)(=O)c1cccs1 (centres undefined) and stop.
Data returned: 20%
